Each item that follows carries a reported IC50.
biological target: benzodiazepine site of the GABA-A receptor; assay: Benzodiazepine receptor binding: inhibition of 3H-flunitrazepam binding to prepared receptor membranes; settings: read-out: GABAA Receptor Binding IC50; 3H-flunitrazepam ca. 3 nM, 10-20 min, 25 °C; >10,000 = not active
Write down the numeric answer in nM and omit the unit.

CCOCCN1C2=C(C(=O)Nc3ccccc3F)C(=O)CCN2c2ccc(F)cc21 : 0.48

INPUT: Quick check: IC50 of C#CCN1C2=C(C(=O)Nc3ccccc3F)C(=O)CCN2c2ccc(F)cc21 ?
OUTPUT: 0.072

INPUT: Quick check: IC50 of O=C1CCN2C(=C1C(=O)Nc1ccccc1F)N(CC(O)CO)c1cc(F)ccc12 (stereo not drawn) ?
OUTPUT: 16

INPUT: Quick check: IC50 of C[S+]([O-])CCN1C2=C(C(=O)Nc3ccccc3F)C(=O)CCN2c2ccc(F)cc21 (stereo not drawn) ?
OUTPUT: 6.19

----------
Each item that follows carries a reported IC50.
molecular target: benzodiazepine site of the GABA-A receptor; test: Benzodiazepine receptor binding: inhibition of 3H-flunitrazepam binding to prepared receptor membranes; conditions: read-out: GABAA Receptor Binding IC50; 3H-flunitrazepam ca. 3 nM, 10-20 min, 25 °C; >10,000 = not active
The answer should read as a number with its unit following.

Past entries and their recorded results:
CC(=O)OCCN1C2=C(C(=O)Nc3ccccc3F)C(=O)CCN2c2ccc(F)cc21 [Compound 119] : 0.25 nM
CN1CCCC(N2C3=C(C(=O)Nc4c(F)cccc4F)C(=O)CCN3c3ccc(F)cc32)C1 (centres unmarked) [Compound 86] : 26.3 nM
COc1ccc(NC(=O)C2=C3N(CC#N)c4cc(F)ccc4N3CCC2=O)cc1 [Compound 82] : 8.55 nM
O=C1CCN2C(=C1C(=O)Nc1ccccc1F)N(CCNC(=O)c1ccccc1)c1cc(F)ccc12 [Compound 46] : 6.1 nM

// next item, IC50 requested
INPUT: Quick check: IC50 of CCOCN1C2=C(C(=O)Nc3ccccc3F)C(=O)CCN2c2c1ccc(F)c2F [Compound 128] ?
OUTPUT: 126 nM
